The following compounds are listed with their measured Activity values.
# experimental_system: P2X purinoceptor 4 (Homo sapiens) (UniProt Q99571)
# Sequence (Q99571 whole entry): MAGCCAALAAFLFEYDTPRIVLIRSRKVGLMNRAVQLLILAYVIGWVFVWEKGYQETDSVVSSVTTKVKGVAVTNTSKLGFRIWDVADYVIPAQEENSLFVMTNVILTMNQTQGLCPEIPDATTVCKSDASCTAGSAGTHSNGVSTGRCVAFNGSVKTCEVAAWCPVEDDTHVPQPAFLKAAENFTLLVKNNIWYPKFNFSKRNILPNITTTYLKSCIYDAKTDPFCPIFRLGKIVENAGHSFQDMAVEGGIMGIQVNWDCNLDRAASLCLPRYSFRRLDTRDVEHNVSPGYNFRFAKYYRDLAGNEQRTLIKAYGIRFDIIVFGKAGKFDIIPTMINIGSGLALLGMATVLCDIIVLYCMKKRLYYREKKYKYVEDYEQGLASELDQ
# protocol_description: Antagonist activity at human P2X4R transfected in HEK293 cells at 30 uM preincubated for 30 mins followed by CTP addition by fluorescence based assay relative to control
# Type: cell-based
# Set-up: scale not given: the % may be the effect or the level left

- sample_smiles: "NCc1ccc2ccc3c(c2c1)NC(=O)CC(=O)N3c1cccc(-c2noc(=S)[nH]2)c1"
  units_label: "%"
  Activity: 9
- sample_smiles: "O=C1CC(=O)N(c2cccc(-c3noc(=S)[nH]3)c2)c2cc(C#Cc3cccnc3)c3ccccc3c2N1"
  units_label: "%"
  Activity: 34
- sample_smiles: "[N-]=[N+]=NCc1ccc2ccc3c(c2c1)NC(=O)CC(=O)N3c1cccc(-c2noc(=S)[nH]2)c1"
  units_label: "%"
  Activity: 6
- sample_smiles: "[N-]=[N+]=NCc1ccc2c(Br)cc3c(c2c1)NC(=O)CC(=O)N3c1cccc(-c2noc(=S)[nH]2)c1"
  units_label: "%"
  Activity: 8
- sample_smiles: "O=C1CC(=O)N(c2cccc(-c3noc(=S)[nH]3)c2)c2cc(C#Cc3ccccc3)c3ccccc3c2N1"
  units_label: "%"
  Activity: -4
- sample_smiles: "CCCCC#Cc1cc2c(c3ccccc13)NC(=O)CC(=O)N2c1cccc(-c2noc(=S)[nH]2)c1"
  units_label: "%"
  Activity: 15
- sample_smiles: "CC(=O)NCc1ccc2ccc3c(c2c1)NC(=O)CC(=O)N3c1cccc(-c2noc(=S)[nH]2)c1"
  units_label: "%"
  Activity: 16
